Molecular target: SARS-CoV-2 Spike as carried on rVSV-SARS-CoV-2 pseudovirus and authentic WT virus (SARS-CoV-2, UniProt P0DTC2 14-1273)
Test: cell-based or functional assay
I'd appreciate it if you could supply Neutralization (ng/mL), Authentic Virus IC80 values for the items below.
Answer in ng/mL, number only, no unit symbol.

query: Quick one: Neutralization (ng/mL), Authentic Virus IC80 for AB-6 full-length IgG1 (antibody, V domains shown) VH: EVQLEESGTVLARPGASVKMSCKASGYTFTSYWMHWIKQRPGQGLEWIGAIYPGNSDTNYNQKFKDKAKLTAVKSTSSAYMELSSLTNEDSAVYFCTREGIPQLTRTLDYWGQGTSVTVSS VL: DILMTQSPSSLSASLGERVSLTCRASQEISGYLSWLQEKPDGTIKRLIYAASTLDSGVPKRFSGSRSGSDYSLTISSLESEDFADYYCLQYLSYPWTFGGGTKLEIK ?
result: 25000

query: Thanks! And AB-9 full-length IgG1 (antibody, V domains shown) VH: EVQLEESGTVLARPGASVKMSCKASGYTFTSYWMHWIKQRPGQGLEWIGAIYPGNSDTNYNQKFKDKAKLTAVTSTSSAYMELSSLTNEDSAVYFCTREGIPQLLRTLDYWGQGTSVTVSS VL: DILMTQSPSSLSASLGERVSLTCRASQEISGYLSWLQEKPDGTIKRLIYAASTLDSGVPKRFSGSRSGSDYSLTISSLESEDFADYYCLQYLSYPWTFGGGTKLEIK ?
result: 627

query: Thanks! And AB-1 full-length IgG1 (antibody, V domains shown) VH: EVQLEESGTVLARPGASVKMSCKASGYTFTTYWMHWIKQRPGQGLEWIGAIYPGNSDTQYNQKFKDKAKLTAVKSTSSAYMELSSLTNEDSAVYFCTREGIPQLLRTLDYWGQGTSVTVSS VL: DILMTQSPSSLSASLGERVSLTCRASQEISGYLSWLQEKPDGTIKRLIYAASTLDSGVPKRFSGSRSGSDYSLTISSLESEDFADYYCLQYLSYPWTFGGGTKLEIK ?
result: 543

query: Thanks! And AB-2 full-length IgG1 (antibody, V domains shown) VH: EVQLEESGTVLARPGASVKMSCKASGYTFTTYWMHWIKQRPGQGLEWIGAIYPGNGDTNYNQKFKDKAKLTAVKSTSSAYMELSSLTNEDSAVYFCTREGIPQLLRTLDYWGQGTSVTVSS VL: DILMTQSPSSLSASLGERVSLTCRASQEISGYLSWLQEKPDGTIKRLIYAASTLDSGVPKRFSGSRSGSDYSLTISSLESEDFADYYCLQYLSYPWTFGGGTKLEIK ?
result: 3030
